targetUnderTest: BuChE from horse serum (eqBuChE) (Equus caballus, UniProt P81908)
Construct: BuChE from horse serum (lyophilized powder, Sigma-Aldrich); purchased Sigma-Aldrich; host or cells: horse serum
Sequence (P81908 whole entry): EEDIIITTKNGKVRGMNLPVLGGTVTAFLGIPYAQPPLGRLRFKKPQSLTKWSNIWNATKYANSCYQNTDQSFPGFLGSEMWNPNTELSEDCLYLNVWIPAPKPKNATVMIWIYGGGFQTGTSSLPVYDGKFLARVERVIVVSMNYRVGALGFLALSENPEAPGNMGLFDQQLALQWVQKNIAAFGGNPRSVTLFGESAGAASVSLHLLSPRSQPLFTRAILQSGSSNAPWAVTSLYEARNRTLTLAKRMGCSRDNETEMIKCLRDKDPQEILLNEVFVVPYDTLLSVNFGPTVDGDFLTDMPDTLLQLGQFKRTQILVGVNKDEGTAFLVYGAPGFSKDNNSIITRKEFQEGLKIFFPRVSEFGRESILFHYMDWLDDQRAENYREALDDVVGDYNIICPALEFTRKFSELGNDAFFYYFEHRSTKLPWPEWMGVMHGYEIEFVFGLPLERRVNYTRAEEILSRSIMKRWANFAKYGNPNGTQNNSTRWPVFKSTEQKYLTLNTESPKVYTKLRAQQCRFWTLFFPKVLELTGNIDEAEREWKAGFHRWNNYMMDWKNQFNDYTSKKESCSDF
assayProtocol: biochemical
runParameters: mean ± SEM
Classification field: enter fulfilled for inhibition at 10 µM values not below 30%, not fulfilled for values below it.

Consider the worked cases shown below.
Cn1ccnc1C1c2c(nc3c(c2N)CCCC3)Oc2ccc3ccccc3c21 (stereo not drawn)
fulfilled
CCOC(=O)C1=C(C)Oc2nc3c(c(N)c2C1c1nccn1C)CCCCC3 (stereo not drawn)
fulfilled
Cn1ccnc1C1C2=C(CC(C)(C)CC2=O)Oc2nc3c(c(N)c21)CCCC3 (stereo not drawn)
fulfilled
CCOC(=O)C1=C(C)Oc2nc3c(c(N)c2C1c1nccn1C)CCC3 (stereo not drawn)
not fulfilled
CCOC(=O)C1=C(C)Oc2nc3c(c(N)c2C1c1nccn1C)CCCC3 (stereo not drawn)
fulfilled

Hi, just wondering whether Cn1ccnc1C1c2ccc3cccnc3c2Oc2nc3c(c(N)c21)CCCCC3 (stereo not drawn) shows inhibition at 10 µM of 30% or higher.
fulfilled

Could you please find out whether CC(=O)C1=C(C)Oc2nc3c(c(N)c2C1c1nccn1C)CCCC3 (stereo not drawn) has inhibition at 10 µM that meets 30% or exceeds it?
not fulfilled

Can Cn1ccnc1C1C2=C(CC(C)(C)CC2=O)Oc2nc3c(c(N)c21)CCC3 (stereo not drawn) be said to have inhibition at 10 µM at or above 30%?
not fulfilled

Answer whether inhibition at 10 µM of Cn1ccnc1C1c2ccc3ccccc3c2Oc2nc3c(c(N)c21)CCCCC3 (stereo not drawn) is greater than or equal to 30%.
not fulfilled

====

Entries annotated with measured Cell viability (MTT reduction, % control)
System: HepG2 cells
Type: cell-based
runParameters: HepG2, 1 µM, 24 h; mean ± S.E.M.
Method: The human hepatoma HepG2 line cells were purchased from American Type Culture Collection. […] Cell viability, measured as the mitochondrial activity of living cells, was determined by quantitative colorimetric assay with 3-[4,5 dimethylthiazol-2-yl]-2,5-diphenyl-tetrazolium bromide (MTT). […] The absorbance was read at 570 nm by microplate spectrophotometry. Cell viability was expressed as percentage over controls (DMSO, 0.1%).
// units = % control; emit number, no label

See these solved cases before continuing.
CCOC(=O)C1=C(C)Oc2nc3c(c(N)c2C1c1nccn1C)CCCC3 (stereo not shown) [Compound 2]
102.7
Nc1c2c(nc3ccccc13)CCCC2 [Tacrine]
95.8
CC(=O)C1=C(C)Oc2nc3c(c(N)c2C1c1nccn1C)CCCC3 (stereo not shown) [Compound 4]
107.7

Continue with the compound presented below.
Record request: Cell viability (MTT reduction, % control) value, item Cn1ccnc1C1c2c(nc3c(c2N)CCCC3)Oc2ccc3ccccc3c21 (stereo not shown) [Compound 8]
108.1

====

Test system: HepG2 cells
Format: cell-based
runParameters: HepG2, 300 µM, 24 h; mean ± S.E.M.
Cell viability (MTT reduction, % control) reference
Only the number, expressed in % control, is required.

Look over these answered cases.
CC(=O)C1=C(C)Oc2nc3c(c(N)c2C1c1nccn1C)CCCC3 (stereo not shown)
97.1
CCOC(=O)C1=C(C)Oc2nc3c(c(N)c2C1c1nccn1C)CCCC3 (stereo not shown)
87.5
Nc1c2c(nc3ccccc13)CCCC2
39.2

Turning to the following compound.
Quick check: Cell viability (MTT reduction, % control) of Cn1ccnc1C1c2c(nc3c(c2N)CCCC3)Oc2ccc3ccccc3c21 (stereo not shown) ?
51.2

====

targetUnderTest: AChE from Electrophorus electricus (EeAChE) (Electrophorus electricus, UniProt O42275)
Sequence (O42275 24-633): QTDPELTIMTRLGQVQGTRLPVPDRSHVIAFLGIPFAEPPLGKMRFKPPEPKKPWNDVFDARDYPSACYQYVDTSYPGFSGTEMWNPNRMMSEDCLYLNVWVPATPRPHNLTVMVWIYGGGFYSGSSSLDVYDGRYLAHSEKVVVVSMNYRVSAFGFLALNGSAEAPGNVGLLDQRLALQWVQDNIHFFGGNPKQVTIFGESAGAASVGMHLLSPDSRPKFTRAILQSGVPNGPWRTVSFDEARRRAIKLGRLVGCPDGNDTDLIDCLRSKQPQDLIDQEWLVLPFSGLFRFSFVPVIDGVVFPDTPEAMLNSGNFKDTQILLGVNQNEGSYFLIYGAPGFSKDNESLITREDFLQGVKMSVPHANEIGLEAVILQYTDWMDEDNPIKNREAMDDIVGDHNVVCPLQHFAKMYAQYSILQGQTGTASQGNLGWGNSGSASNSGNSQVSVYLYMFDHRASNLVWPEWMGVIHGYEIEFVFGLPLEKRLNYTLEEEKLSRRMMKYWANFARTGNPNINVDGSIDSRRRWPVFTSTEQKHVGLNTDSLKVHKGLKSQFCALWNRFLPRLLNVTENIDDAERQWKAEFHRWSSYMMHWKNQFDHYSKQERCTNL
assayProtocol: biochemical
The entries below are paired with their reported IC50.
Use µM as the unit, but write only the number.

Cn1ccnc1C1c2ccc3cccnc3c2Oc2nc3c(c(N)c21)CCCCC3 (stereo not shown)
30

Record CCOC(=O)C1=C(C)Oc2nc3c(c(N)c2C1c1nccn1C)CCCCC3 (stereo not shown) : what is its IC50 with AChE from Electrophorus electricus (EeAChE) (Electrophorus electricus, UniProt O42275)?
432

Request: IC50, test system AChE from Electrophorus electricus (EeAChE) (Electrophorus electricus, UniProt O42275), entry Cn1ccnc1C1C2=C(CC(C)(C)CC2=O)Oc2nc3c(c(N)c21)CCC3 (stereo not shown)
158

Lab note: need IC50 for Cn1ccnc1C1c2c(nc3c(c2N)CCCC3)Oc2ccc3ccccc3c21 (stereo not shown) on AChE from Electrophorus electricus (EeAChE) (Electrophorus electricus, UniProt O42275), anyone have it?
6.73

Fill in the recorded IC50 for this molecule, with AChE from Electrophorus electricus (EeAChE) (Electrophorus electricus, UniProt O42275) as test system: Cn1ccnc1C1C2=C(CC(C)(C)CC2=O)Oc2nc3c(c(N)c21)CCCC3 (stereo not shown)
37.8

GET /values?readout=IC50&system=AChE from Electrophorus electricus (EeAChE) (Electrophorus electricus, UniProt O42275)&item= CCOC(=O)C1=C(C)Oc2nc3c(c(N)c2C1c1nccn1C)CCC3 (stereo not shown)
12.9

# query: IC50 | item CCOC(=O)C1=C(C)Oc2nc3c(c(N)c2C1c1nccn1C)CCCC3 (stereo not shown) | system: AChE from Electrophorus electricus (EeAChE) (Electrophorus electricus, UniProt O42275)
11.5

Value wanted: IC50 (AChE from Electrophorus electricus (EeAChE) (Electrophorus electricus, UniProt O42275)) of entry Cn1ccnc1C1c2ccc3cccnc3c2Oc2nc3c(c(N)c21)CCC3 (stereo not shown)
15.3

Request: IC50, test system AChE from Electrophorus electricus (EeAChE) (Electrophorus electricus, UniProt O42275), entry Cn1ccnc1C1c2c(nc3c(c2N)CCC3)Oc2ccc3ccccc3c21 (stereo not shown)
8.41

Recall the recorded IC50 for CC(=O)C1=C(C)Oc2nc3c(c(N)c2C1c1nccn1C)CCCC3 (stereo not shown) with AChE from Electrophorus electricus (EeAChE) (Electrophorus electricus, UniProt O42275) and state it.
38.7

====

Tested on: HepG2 cells
Format: cell-based
runParameters: HepG2, 10 µM, 24 h; mean ± S.E.M.
Recorded Cell viability (MTT reduction, % control) values for a group of compounds are listed next.

See these solved cases before continuing.
Cn1ccnc1C1c2c(nc3c(c2N)CCCC3)Oc2ccc3ccccc3c21 (stereo not shown)
79.0 ± 9.1 % control
CCOC(=O)C1=C(C)Oc2nc3c(c(N)c2C1c1nccn1C)CCCC3 (stereo not shown)
101.3 ± 3.9 % control
CC(=O)C1=C(C)Oc2nc3c(c(N)c2C1c1nccn1C)CCCC3 (stereo not shown)
102.1 ± 2.9 % control

In the following, a different compound is considered.
Cell viability (MTT reduction, % control) for Nc1c2c(nc3ccccc13)CCCC2 ?
96.9 ± 3.9 % control

====

Measured inhibition at 10 µM by item
targetUnderTest: BuChE from horse serum (eqBuChE) (Equus caballus, UniProt P81908)
Construct: BuChE from horse serum (lyophilized powder, Sigma-Aldrich); purchased Sigma-Aldrich; host or cells: horse serum
assayProtocol: biochemical
runParameters: mean ± SEM
Give the quantity in %, number only.

Use these answered entries as a reference point.
Cn1ccnc1C1c2c(nc3c(c2N)CCC3)Oc2ccc3ccccc3c21 (stereo not drawn) [Compound 7]
50.5
Cn1ccnc1C1c2ccc3cccnc3c2Oc2nc3c(c(N)c21)CCC3 (stereo not drawn) [Compound 12]
27.5

For the next question, use this molecule.
Returns the measured inhibition at 10 µM for the input molecule. Input: Cn1ccnc1C1c2c(nc3c(c2N)CCCCC3)Oc2ccc3ccccc3c21 (stereo not drawn) [Compound 9]
15.1

====

assayProtocol: Oxygen radical absorbance capacity by fluorescence (ORAC-FL)
runParameters: Trolox equivalents, mean ± SD
Here the recorded ORAC is given for each entry.
Reply with just the number (in µmol Trolox/µmol compound).

A selection of reference data follows.
Cn1ccnc1C1c2c(nc3c(c2N)CCC3)Oc2ccc3ccccc3c21 (centres unmarked)
1.47
Cn1ccnc1C1c2c(nc3c(c2N)CCCC3)Oc2ccc3ccccc3c21 (centres unmarked)
1.88
CCOC(=O)C1=C(C)Oc2nc3c(c(N)c2C1c1nccn1C)CCCCC3 (centres unmarked)
1.99
Cn1ccnc1C1c2c(nc3c(c2N)CCCCC3)Oc2ccc3ccccc3c21 (centres unmarked)
1.35
CCOC(=O)C1=C(C)Oc2nc3c(c(N)c2C1c1nccn1C)CCCC3 (centres unmarked)
1.79

Consider the molecule Cn1ccnc1C1c2ccc3cccnc3c2Oc2nc3c(c(N)c21)CCC3 (centres unmarked) and give its measured ORAC.
1.88

If you can, please state the reported ORAC value of Cn1ccnc1C1C2=C(CC(C)(C)CC2=O)Oc2nc3c(c(N)c21)CCC3 (centres unmarked) .
1.70

Could you tell me which ORAC is on file for CCOC(=O)C1=C(C)Oc2nc3c(c(N)c2C1c1nccn1C)CCC3 (centres unmarked) ?
0.34

====

Cell viability (MTT reduction, % control) listing for selected molecules.
Tested on: HepG2 cells
Format: cell-based
runParameters: HepG2, 30 µM, 24 h; mean ± S.E.M.
Answer with a number only, understood to be in % control.

CCOC(=O)C1=C(C)Oc2nc3c(c(N)c2C1c1nccn1C)CCCC3 (stereo not shown)
99.2
Nc1c2c(nc3ccccc13)CCCC2
97.7
Cn1ccnc1C1c2c(nc3c(c2N)CCCC3)Oc2ccc3ccccc3c21 (stereo not shown)
57.6

Below: the item to evaluate.
So what's the measured Cell viability (MTT reduction, % control) for this one? CC(=O)C1=C(C)Oc2nc3c(c(N)c2C1c1nccn1C)CCCC3 (stereo not shown)
98.0
